B1: LINE1-full (parent)
chain: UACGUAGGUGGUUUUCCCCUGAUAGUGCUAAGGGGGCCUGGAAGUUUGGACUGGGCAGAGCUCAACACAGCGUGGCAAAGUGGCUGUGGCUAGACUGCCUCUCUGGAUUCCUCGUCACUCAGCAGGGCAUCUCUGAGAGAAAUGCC

Variants of: B1
Experiment: self-cleavage, relative activity (ratio to wild type); higher = more cleavage; in vitro, sequencing; the parent is a self-cleaving ribozyme
READOUT_NAME: self-cleavage

VARIANT_NOTATION | READOUT_NAME | REPORTED
U5C A121U | self-cleavage | 0.86
U14C U85C | self-cleavage | 0.23
U47A A138G | self-cleavage | 1.39
U109C U112C | self-cleavage | 1.69
U104A U108C | self-cleavage | 1.14
A2G U132C | self-cleavage | 1.04
A43G A65U | self-cleavage | 0.15
G7A U87C | self-cleavage | 0.07
A31G U87A | self-cleavage | 0.13
A69G A78G | self-cleavage | 0.25
G53U A64G | self-cleavage | 0.16
A2U U15C | self-cleavage | 1.19
C61U A65C | self-cleavage | 0.03
A67G C103U | self-cleavage | 0.25
G4A A140C | self-cleavage | 0.27
G89U G93A | self-cleavage | 0.04
C63U U87A | self-cleavage | 0.07
G93U A136G | self-cleavage | 0.08
A22G U91A | self-cleavage | 0.71
A65G U109G | self-cleavage | 0.23
U52A U132C | self-cleavage | 1.48
U15C C19U | self-cleavage | 1.08
